IC50 values, listed per item
Target: K-Ras G12V (Homo sapiens, UniProt P01116, G12V)
Sequence (P01116 1-169 isoform P01116-2 G12V): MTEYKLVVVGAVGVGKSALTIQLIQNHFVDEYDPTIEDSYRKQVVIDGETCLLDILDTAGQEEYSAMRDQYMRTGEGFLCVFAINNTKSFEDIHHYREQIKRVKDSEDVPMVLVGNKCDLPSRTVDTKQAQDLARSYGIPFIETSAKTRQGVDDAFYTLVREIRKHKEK
Test: biochemical

{"columns": ["Compound", "Measured target", "IC50"],
 "data": [
  ["CCc1c(F)ccc2cc(O)cc(-c3cc4c5c(nc(OC[C@@]67CCCN6C[C@H](F)C7)nc5c3F)N3CCOCCC3CO4)c12 (some centres unmarked)", "K-Ras G12V (Homo sapiens, UniProt P01116, G12V)", "> 1000 nM"]
]}

Ask: Return reported IC50; argument: C#Cc1c(F)ccc2cc(O)cc(-c3nc4c5c(nc(OC[C@@]67CCCN6C[C@H](F)C7)nc5c3F)N3C5COCCC3(CO4)C5)c12 (some centres unmarked)
Reply: > 1000 nM

====

Target: K-Ras G12V (Homo sapiens, UniProt P01116, G12V)
Assay: biochemical
Assay readout: IC50 (nM)
# number only, unit nM dropped from output

{"columns": ["Molecule", "Measured target", "Assay readout", "Experimental value"],
 "data": [
  ["C#Cc1c(F)ccc2cc(O)cc(-c3nc4c5c(nc(OC[C@@]67CCCN6C[C@H](F)C7)nc5c3F)N3C5COCCC3(CO4)C5)c12 (some centres unmarked)", "K-Ras G12V (Homo sapiens, UniProt P01116, G12V)", "IC50", 43.5]
]}

Turning now to a further record.
Ask: Query (molecule): CCc1c(F)ccc2cc(O)cc(-c3cc4c5c(nc(OC[C@@]67CCCN6C[C@H](F)C7)nc5c3F)N3CCOCCC3CO4)c12 (some centres unmarked) ; field requested: IC50
Reply: 14.7

====

Test system: AsPC-1 cells (K-Ras G12D)
Assay: 2D cell growth inhibition assay (CellTiter-Glo)
Assay type: cell-based
Conditions: Homo sapiens, ASPC1, AsPC-1 (G12D), 6 days, absolute IC50
Assay readout: pIC50
Reminder that pIC50 is minus the log10 of a molar concentration.

Previously resolved entries follow.
{"columns": ["Molecule", "Measured target", "Experimental value"],
 "data": [
  ["C#Cc1c(F)ccc2cc(O)cc(-c3nc4c5c(nc(OC[C@@]67CCCN6C[C@H](F)C7)nc5c3F)N3CCCOCC3CO4)c12 (stereo partly drawn)", "AsPC-1 cells (K-Ras G12D)", 7.71],
  ["C#Cc1c(F)ccc2cc(O)cc(-c3nc4c5c(nc(OC[C@@]67CCCN6C[C@H](F)C7)nc5c3F)N3CCCOC[C@@H]3CO4)c12", "AsPC-1 cells (K-Ras G12D)", 7.10]
]}

Ask: What measured pIC50 is associated with C#Cc1c(F)ccc2cc(O)cc(-c3nc4c5c(nc(OC[C@@]67CCCN6C[C@H](F)C7)nc5c3F)N3CCCCCC3CO4)c12 (stereo partly drawn) on AsPC-1 cells (K-Ras G12D)?
Reply: 7.81

Ask: Now try C#Cc1c(F)ccc2cc(O)cc(-c3nc4c5c(nc(OC[C@@]67CCCN6C[C@H](F)C7)nc5c3F)N3CCCC3CO4)c12 (stereo partly drawn) .
Reply: 6.26

Ask: Same question for C#Cc1c(F)ccc2cc(O)cc(-c3cc4c5c(nc(OC[C@@]67CCCN6C[C@H](F)C7)nc5c3F)N3CCOCCC3CO4)c12 (stereo partly drawn) please.
Reply: 6.01

Ask: Please do the same for C#Cc1c(F)ccc2cc(O)cc(-c3nc4c5c(nc(OC[C@@]67CCCN6C[C@H](F)C7)nc5c3F)N3CCOCC3CO4)c12 (stereo partly drawn) as well.
Reply: 6.46

====

Parameter IC50: see the listing below.
System: AGS cells (K-Ras G12D)
Assay: 2D cell growth inhibition assay (CellTiter-Glo)
Assay type: cell-based
Settings: Homo sapiens, 6 days, absolute IC50
Give the quantity in nM, number only.

Ask: What value of measured IC50 is listed for C#Cc1c(F)ccc2cc(O)cc(-c3nc4c5c(nc(OC[C@@]67CCCN6C[C@H](F)C7)nc5c3F)N3CCOCC3CO4)c12 (stereo partly drawn) ?
Reply: 31.8

====

Target: K-Ras G12D (Homo sapiens, UniProt P01116, G12D)
Sequence (P01116 1-169 isoform P01116-2 G12D): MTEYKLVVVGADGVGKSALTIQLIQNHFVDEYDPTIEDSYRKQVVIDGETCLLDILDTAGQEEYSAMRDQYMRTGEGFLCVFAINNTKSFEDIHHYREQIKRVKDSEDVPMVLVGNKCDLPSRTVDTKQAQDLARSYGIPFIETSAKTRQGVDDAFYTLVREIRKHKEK
Experiment: biochemical
Assay readout: IC50 (nM)
The reply should contain only the number, in nM.

{"columns": ["Compound", "Measured target", "Experimental value"],
 "data": [
  ["C#Cc1c(F)ccc2cc(O)cc(-c3nc4c5c(nc(OC[C@@]67CCCN6C[C@H](F)C7)nc5c3F)N3C5COCCC3(CO4)C5)c12 (some centres unmarked) [Compound 16]", "K-Ras G12D (Homo sapiens, UniProt P01116, G12D)", 57.4]
]}

Attention now shifts to the item below.
Ask: State the recorded IC50 for this entry: CCc1c(F)ccc2cc(O)cc(-c3cc4c5c(nc(OC[C@@]67CCCN6C[C@H](F)C7)nc5c3F)N3CCOCCC3CO4)c12 (some centres unmarked) [Compound 4]
Reply: 32.7

====

Collected IC50 values appear next to each entry.
System: AsPC-1 cells (K-Ras G12D)
Assay: 2D cell growth inhibition assay (CellTiter-Glo)
Format: cell-based
Conditions: Homo sapiens, ASPC1, AsPC-1 (G12D), 6 days, absolute IC50
Report the value in nM with no unit label.

Below, 4 compounds whose answers are already recorded.
{"columns": ["Compound", "Units", "IC50"],
 "data": [
  ["C#Cc1c(F)ccc2cc(O)cc(-c3nc4c5c(nc(OCC67CCCN6CC(F)C7)nc5c3F)N3CCOCCC3CO4)c12 (centres unmarked)", "nM", 134],
  ["C#Cc1c(F)ccc2cc(O)cc(-c3nc4c5c(nc(OC[C@@]67CCCN6C[C@H](F)C7)nc5c3F)N3CCCOC[C@H]3CN4C)c12", "nM", 64.4],
  ["C#Cc1c(F)ccc2cc(O)cc(-c3nc4c5c(nc(OC[C@@]67CCCN6C[C@H](F)C7)nc5c3F)N3CCCCC[C@H]3CO4)c12", "nM", 10.2],
  ["CCc1c(F)ccc2cc(O)cc(-c3nc4c5c(nc(OC[C@@]67CCCN6C[C@H](F)C7)nc5c3F)N3CCOCC3CO4)c12 (some centres unmarked)", "nM", 702]
]}

Would you kindly look at the next entry?
Ask: For C#Cc1c(F)ccc2cc(O)cc(-c3nc4c5c(nc(OC[C@@]67CCCN6C[C@H](F)C7)nc5c3F)N3CCOCC3CCO4)c12 (some centres unmarked) , what is its reported IC50?
Reply: 810

====

Tested on: AGS cells (K-Ras G12D)
Assay: 2D cell growth inhibition assay (CellTiter-Glo)
Type: cell-based
Conditions: Homo sapiens, 6 days, absolute IC50
Could you please classify the records by IC50 using these ranges: interval 1: < 3 nM; interval 2: ≥ 3 nM and < 80 nM; interval 3: ≥ 80 nM

Completed entries (count: 6):
{"columns": ["Compound", "Class name"],
 "data": [
  ["C#Cc1c(F)ccc2cc(O)cc(-c3nc4c5c(nc(OC[C@@]67CCCN6C[C@H](F)C7)nc5c3F)N3CCCOC[C@H]3CO4)c12", "interval 1"],
  ["C#Cc1c(F)ccc2cc(O)cc(-c3nc4c5c(nc(OCC67CCCN6CC(F)C7)nc5c3F)N3CCOCCC3CO4)c12 (centres unmarked)", "interval 2"],
  ["CCc1c(F)ccc2cc(O)cc(-c3nc4c5c(nc(OC[C@@]67CCCN6C[C@H](F)C7)nc5c3F)N3CCOCC3CO4)c12 (some centres unmarked)", "interval 3"],
  ["C#Cc1c(F)ccc2cc(O)cc(-c3nc4c5c(nc(OC[C@@]67CCCN6C[C@H](F)C7)nc5c3F)N3CCCCCC3CO4)c12 (some centres unmarked)", "interval 1"],
  ["C#Cc1c(F)ccc2cc(O)cc(-c3nc4c5c(nc(OC[C@@]67CCCN6C[C@H](F)C7)nc5c3F)N3CCOCC3CCO4)c12 (some centres unmarked)", "interval 3"],
  ["C#Cc1c(F)ccc2cc(O)cc(-c3nc4c5c(nc(OC[C@@]67CCCN6C[C@H](F)C7)nc5c3F)N3CCCCC[C@H]3CO4)c12", "interval 1"]
]}

Ask: Assign a category based on measured IC50 for C#Cc1c(F)ccc2cc(O)cc(-c3nc4c5c(nc(OC[C@@]67CCCN6C[C@H](F)C7)nc5c3F)N3CCCOCC3CO4)c12 (some centres unmarked) and give only the class name.
Reply: interval 1

Ask: What about this compound? C#Cc1c(F)ccc2cc(O)cc(-c3nc4c5c(nc(OC[C@@]67CCCN6C[C@H](F)C7)nc5c3F)N3CCCC3CO4)c12 (some centres unmarked)
Reply: interval 3

Ask: Ok, now C#Cc1c(F)ccc2cc(O)cc(-c3nc4c5c(nc(OC[C@@]67CCCN6C[C@H](F)C7)nc5c3F)N3CCCOC[C@H]3CN4C)c12
Reply: interval 2

Ask: Try C#Cc1c(F)ccc2cc(O)cc(-c3nc4c5c(nc(OC[C@@]67CCCN6C[C@H](F)C7)nc5c3F)N3CCCOC[C@@H]3CO4)c12 next.
Reply: interval 2

Ask: And C#Cc1c(F)ccc2cc(O)cc(-c3cc4c5c(nc(OC[C@@]67CCCN6C[C@H](F)C7)nc5c3F)N3CCOCCC3CO4)c12 (some centres unmarked) ?
Reply: interval 3
